# target.entity: Mt-PTPa (Mycobacterium tuberculosis)
# Construct: made in house; host or cells: E. coli BL21(DE3)pLysS
# Sequence (P9WIA1 whole entry): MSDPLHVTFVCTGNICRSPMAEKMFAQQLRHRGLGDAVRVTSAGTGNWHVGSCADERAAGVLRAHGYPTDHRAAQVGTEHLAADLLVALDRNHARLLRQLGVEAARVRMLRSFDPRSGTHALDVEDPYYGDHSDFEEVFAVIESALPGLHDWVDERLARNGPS
# protocol.text: Mt-PTPa phosphatase activity inhibition assay (hydrolysis of p-nitrophenyl phosphate, A405)
# Format: biochemical
# test.settings: Dixon plot analysis; pNPP 0.25-2.50 mM; inhibitor 0-100 µM; Mt-PTPa 10 µM; read-out: KI (inhibitor constant)
Catalogue of Ki values
Your answer is read as µM, so omit the unit and give the number.

compound="O=C1C=CC(=O)c2c(O)cccc21 [Juglone, 5-hydroxy-1,4-naphthalenedione]" target_entity="Mt-PTPa (Mycobacterium tuberculosis)" readout_name=Ki recorded_result=12.5

What the record says about CC(C)=CC[C@@H](O)C1=CC(=O)c2c(O)ccc(O)c2C1=O [Shikonin] : Ki is 8.5

----------
# target.entity: Mt-PTPa (Mycobacterium tuberculosis)
readout.name: IC50 (µM)
Your answer is read as µM, so omit the unit and give the number.

Solved entries (count: 3):
molecule="Oc1cc(O)c2c(c1)O[C@H](c1cc(O)c(O)c(O)c1)[C@H](O)C2 [Epigallocatechin, epigallocatechin]" target_entity="Mt-PTPa (Mycobacterium tuberculosis)" readout_name=IC50 recorded_result=492
molecule=O=C(/C=C/c1ccc(O)c(O)c1)O[C@H](Cc1ccc(O)c(O)c1)C(=O)O target_entity="Mt-PTPa (Mycobacterium tuberculosis)" readout_name=IC50 recorded_result=900
molecule=CC(C)=CC[C@@H](O)C1=CC(=O)c2c(O)ccc(O)c2C1=O target_entity="Mt-PTPa (Mycobacterium tuberculosis)" readout_name=IC50 recorded_result=33

What the record says about O=c1c(O)c(-c2cc(O)c(O)c(O)c2)oc2cc(O)cc(O)c12 : IC50 is 250
